Just for reference, patent US6608061B2 is where these values come from.

system: HeLa S3 cells; experiment: Test for growth inhibition of HeLa S3 cells; format: cell-based; conditions: Homo sapiens, HeLa S3, 72 h, HeLa S3 cells, 72 hours with test compound, Cell Proliferation Kit II; read-out: Cell growth inhibition (IC50)
PROPERTY MEASURED: IC50 (µM)

>>> data_value("COCCOCCN(CCSc1ccc(O)cc1)CCSc1ccc(O)cc1")
4.85
>>> data_value("O=C(c1cccnc1)N(CCSc1ccc(O)cc1)CCSc1ccc(O)cc1")
3.02
>>> data_value("O=C(CN(CCSc1ccc(O)cc1)CCSc1ccc(O)cc1)N(CCO)CCO")
5.93
>>> data_value("Oc1ccc(SCCN(CCSc2ccc(O)cc2)Cc2ccccc2F)cc1")
9.07
>>> data_value("CS(=O)(=O)N(CCSc1ccc(O)cc1)CCSc1ccc(O)cc1")
7.78
>>> data_value("OCCN(CCSc1ccc(O)cc1)CCSc1ccc(O)cc1")
1.42
>>> data_value("Oc1ccc(SCCNCCSc2ccc(O)cc2)cc1")
5.64
>>> data_value("Oc1ccc(SCCN(CCSc2ccc(O)cc2)Cc2ccco2)cc1")
6.38
